- Applied conditions: FVB, mouse, plasma (systemic circulation, abdominal vein), oral, 2 mg/kg, Csys of topotecan, topotecan 2 mg/kg po, bcrp KO mice

Molecule: CC[C@@]1(O)C(=O)OCc2c1cc1n(c2=O)Cc2cc3c(CN(C)C)c(O)ccc3nc2-1 [topotecan]
Scale unit: nM
concentration at 30 min: 398

====

- Experimental details: in vivo
- Applied conditions: male, FVB, mouse, portal vein plasma, oral, 10 mg/kg
Quantity: concentration at 10 min (nM)

Compound: CC(=O)O[C@H]1C(=O)[C@@]2(C)[C@H]([C@H](OC(=O)c3ccccc3)[C@]3(O)C[C@H](OC(=O)[C@H](O)[C@@H](NC(=O)c4ccccc4)c4ccccc4)C(C)=C1C3(C)C)[C@]1(OC(C)=O)CO[C@@H]1C[C@@H]2O [paclitaxel]
Experimental value: 439

====

- Experimental details: in vivo
- Applied conditions: FVB, mouse, plasma, iv, 5 mg/kg

Compound smiles: CC(=O)O[C@H]1C(=O)[C@@]2(C)[C@H]([C@H](OC(=O)c3ccccc3)[C@]3(O)C[C@H](OC(=O)[C@H](O)[C@@H](NC(=O)c4ccccc4)c4ccccc4)C(C)=C1C3(C)C)[C@]1(OC(C)=O)CO[C@@H]1C[C@@H]2O
half-life / min: 127

====

- Experimental details: in vivo
- Applied conditions: FVB, mouse, systemic plasma, po, 20 mg/kg

Compound smiles: CC(=O)O[C@H]1C(=O)[C@@]2(C)[C@H]([C@H](OC(=O)c3ccccc3)[C@]3(O)C[C@H](OC(=O)[C@H](O)[C@@H](NC(=O)c4ccccc4)c4ccccc4)C(C)=C1C3(C)C)[C@]1(OC(C)=O)CO[C@@H]1C[C@@H]2O
half-life, h: 2

====

- Applied conditions: read-out: Cmax of paclitaxel; paclitaxel 20 mg/kg po; mdr1a/1b KO mice; pv
Quantity: Cmax

Compound smiles: CC(=O)O[C@H]1C(=O)[C@@]2(C)[C@H]([C@H](OC(=O)c3ccccc3)[C@]3(O)C[C@H](OC(=O)[C@H](O)[C@@H](NC(=O)c4ccccc4)c4ccccc4)C(C)=C1C3(C)C)[C@]1(OC(C)=O)CO[C@@H]1C[C@@H]2O
Experimental value: 2520 nM

====

- Experimental details: in vivo
- Applied conditions: FVB, mouse, systemic (abdominal vein) plasma, po, 20 mg/kg
Quantity: Cmax (nM)

Molecule: CC(=O)O[C@H]1C(=O)[C@@]2(C)[C@H]([C@H](OC(=O)c3ccccc3)[C@]3(O)C[C@H](OC(=O)[C@H](O)[C@@H](NC(=O)c4ccccc4)c4ccccc4)C(C)=C1C3(C)C)[C@]1(OC(C)=O)CO[C@@H]1C[C@@H]2O [paclitaxel]
Quantity: Cmax
Experimental value: 1180

====

- Experimental details: in vivo
- Applied conditions: male, FVB, mouse, portal vein plasma, oral, 10 mg/kg
Quantity: concentration at 30 min (nM)

Compound smiles: CC(=O)O[C@H]1C(=O)[C@@]2(C)[C@H]([C@H](OC(=O)c3ccccc3)[C@]3(O)C[C@H](OC(=O)[C@H](O)[C@@H](NC(=O)c4ccccc4)c4ccccc4)C(C)=C1C3(C)C)[C@]1(OC(C)=O)CO[C@@H]1C[C@@H]2O
Experimental value: 328

====

- Experimental details: in vivo
- Applied conditions: FVB, mouse, systemic (abdominal vein) plasma, po, 20 mg/kg
Quantity: k el (s⁻¹)

Compound smiles: CC(=O)O[C@H]1C(=O)[C@@]2(C)[C@H]([C@H](OC(=O)c3ccccc3)[C@]3(O)C[C@H](OC(=O)[C@H](O)[C@@H](NC(=O)c4ccccc4)c4ccccc4)C(C)=C1C3(C)C)[C@]1(OC(C)=O)CO[C@@H]1C[C@@H]2O
Experimental value: 9.72e-05

Hello, the source for this data is paper PMC7999658, in case you need it.
